- Experimental Details: Photosensitizer-mediated PDT, in vitro proliferation (MTT), 4T1
- Format: cell-based, murine
- Condition Summary: mouse, 4T1 cells, 2 μg/mL, no light, read-out: cell viability (%)
Parameter Measured: viability at 24 h, 2 μg/mL (%)
Express it in %; write the number only.

Exam item: Need viability at 24 h, 2 μg/mL of C=Cc1c(C)c2cc3nc(c(CC(=O)O)c4[nH]c(cc5nc(cc1[nH]2)C(C)=C5CC)c(C)c4C(=O)O)[C@@H](CCC(=O)O)[C@@H]3C [Ce6, reference compound] , thanks.
Marked response: 90

---

- Experimental Details: Photosensitizer-mediated PDT, in vitro proliferation (MTT), huh-7
- Assay type: cell-based, human
- Condition Summary: human, huh-7 cells, 5 μg/mL, no light, read-out: cell viability (%)
Parameter Measured: viability at 24 h, 5 μg/mL

Exam item: Need viability at 24 h, 5 μg/mL of C=Cc1c(C)c2cc3nc(c(CC(=O)O)c4[nH]c(cc5nc(cc1[nH]2)C(C)=C5CC)c(C)c4C(=O)O)[C@@H](CCC(=O)O)[C@@H]3C [Ce6, reference compound] , thanks.
Marked response: 90%

---

- Experimental Details: Photosensitizer-mediated PDT, in vitro proliferation (MTT), Hela
- Assay type: cell-based, human
- Condition Summary: human, Hela cells; Hela; 2 μg/mL; no light; read-out: cell viability (%)
Parameter Measured: viability at 24 h, 2 μg/mL (%)
Express it in %; write the number only.

Exam item: Need viability at 24 h, 2 μg/mL of C=Cc1c(C)c2cc3nc(c(CC(=O)O)c4[nH]c(cc5nc(cc1[nH]2)C(C)=C5CC)c(C)c4C(=O)O)[C@@H](CCC(=O)O)[C@@H]3C [Ce6, reference compound] , thanks.
Marked response: 89

---

- Experimental Details: Photosensitizer-mediated PDT, in vitro proliferation (MTT), huh-7
- Type: cell-based, human
- Condition Summary: human, huh-7 cells, 10 μg/mL, no light, read-out: cell viability (%)
Parameter Measured: viability at 24 h, 10 μg/mL

Exam item: Need viability at 24 h, 10 μg/mL of C=Cc1c(C)c2cc3nc(c(CC(=O)O)c4[nH]c(cc5nc(cc1[nH]2)C(C)=C5CC)c(C)c4C(=O)O)[C@@H](CCC(=O)O)[C@@H]3C [Ce6, reference compound] , thanks.
Marked response: 87%

---

- Experimental Details: Photosensitizer-mediated PDT, in vitro proliferation (MTT), 4T1
- Format: cell-based, murine
- Condition Summary: mouse, 4T1 cells, 1 μg/mL, no light, read-out: cell viability (%)
Parameter Measured: viability at 24 h, 1 μg/mL (%)
Express it in %; write the number only.

Exam item: Need viability at 24 h, 1 μg/mL of C=Cc1c(C)c2cc3nc(c(CC(=O)O)c4[nH]c(cc5nc(cc1[nH]2)C(C)=C5CC)c(C)c4C(=O)O)[C@@H](CCC(=O)O)[C@@H]3C [Ce6, reference compound] , thanks.
Marked response: 91

---

- Experimental Details: Photosensitizer-mediated PDT, in vitro proliferation (MTT), 4T1
- Format: cell-based, murine
- Condition Summary: mouse, 4T1 cells, Table 8a, 10 μg/mL, no light, read-out: cell viability (%), No light
- Description: Several kinds of tumor cells (human cervical cancer Hela cells, human hepatocellular carcinoma huh-7 cells and murine mammary carcinoma 4T1 cells) cultured in vitro from a variety of tissues were taken as cell models, so as to investigate the photodynamic effects mediated by different doses of CEFN, CEFO, Ce6 and HPPH on the three different tumor cells (n=3). The specific experimental procedures were carried out as follows. […]
Give measured viability at 24 h, 10 μg/mL for each item. Keep answers brief.
Express it in %; write the number only.

Exam item: Need viability at 24 h, 10 μg/mL of CCCCCCCCNCc1c(C)c2cc3nc(c(C)c4[nH]c(cc5nc(cc1[nH]2)C(C)=C5CC)c(C)c4C(=O)O)[C@@H](CCC(=O)O)[C@@H]3C [Example 24] , thanks.
Marked response: 100

Exam item: Need viability at 24 h, 10 μg/mL of CCCCCNCc1c(C)c2cc3nc(c(C)c4[nH]c(cc5nc(cc1[nH]2)C(C)=C5CC)c(C)c4C(=O)O)[C@@H](CCC(=O)O)[C@@H]3C [Example 26] , thanks.
Marked response: 102

Exam item: Need viability at 24 h, 10 μg/mL of CCCCCCCCCCNCc1c(C)c2cc3nc(c(C)c4[nH]c(cc5nc(cc1[nH]2)C(C)=C5CC)c(C)c4C(=O)O)[C@@H](CCC(=O)O)[C@@H]3C [Example 22] , thanks.
Marked response: 99

Exam item: Need viability at 24 h, 10 μg/mL of CCCCCCCNCc1c(C)c2cc3nc(c(C)c4[nH]c(cc5nc(cc1[nH]2)C(C)=C5CC)c(C)c4C(=O)O)[C@@H](CCC(=O)O)[C@@H]3C [Example 25] , thanks.
Marked response: 100

Exam item: Need viability at 24 h, 10 μg/mL of CCCCCCCCCNCc1c(C)c2cc3nc(c(C)c4[nH]c(cc5nc(cc1[nH]2)C(C)=C5CC)c(C)c4C(=O)O)[C@@H](CCC(=O)O)[C@@H]3C [Example 23] , thanks.
Marked response: 102

Exam item: Need viability at 24 h, 10 μg/mL of CCCCNCc1c(C)c2cc3nc(c(C)c4[nH]c(cc5nc(cc1[nH]2)C(C)=C5CC)c(C)c4C(=O)O)[C@@H](CCC(=O)O)[C@@H]3C [Example 27] , thanks.
Marked response: 103

Exam item: Need viability at 24 h, 10 μg/mL of CCCNCc1c(C)c2cc3nc(c(C)c4[nH]c(cc5nc(cc1[nH]2)C(C)=C5CC)c(C)c4C(=O)O)[C@@H](CCC(=O)O)[C@@H]3C [Example 28] , thanks.
Marked response: 104

Exam item: Need viability at 24 h, 10 μg/mL of CCCCCCCCCCCCNCc1c(C)c2cc3nc(c(C)c4[nH]c(cc5nc(cc1[nH]2)C(C)=C5CC)c(C)c4C(=O)O)[C@@H](CCC(=O)O)[C@@H]3C [Example 20] , thanks.
Marked response: 104

Exam item: Need viability at 24 h, 10 μg/mL of CCCCCCCCCCCNCc1c(C)c2cc3nc(c(C)c4[nH]c(cc5nc(cc1[nH]2)C(C)=C5CC)c(C)c4C(=O)O)[C@@H](CCC(=O)O)[C@@H]3C [Example 21] , thanks.
Marked response: 101
